- Method summary: qHTS assay to identify small molecule agonists of the estrogen receptor beta (ER-beta) signaling pathway - cell viability counter screen (AID 1259380); note: nearly all actives have a fitted effect of over 30% in size
- Condition set: ER-beta-bla HEK293T viability, CellTiter-Glo luminescence, 16 h; series mostly up to 92.4 µM
Records with an inconclusive call do not appear. Active and inactive are the calls of the source. Calls come from the whole dose curve; as a rule, active = well fitted cell-killing curve with a large enough effect in the repeat runs; inconclusive = weak or mixed curves, or effect the other way; inactive = flat fitted curve, though single readings scatter.

>  <Compound structure>
CC(C)(C)OO

>  <outcome>
inactive

$$$$
>  <Compound structure>
Cc1ccc(C(=O)Cl)cc1

>  <outcome>
inactive

$$$$
>  <Compound structure>
Fc1cccc(Cl)c1CCl

>  <outcome>
inactive

$$$$

###

- Method summary: qHTS assay to identify small molecule antagonists of the retinoid acid receptor (RAR) signaling pathway - cell viability counter screen (AID 1159551); note: nearly all actives have a fitted effect of over 35% in size
- Condition set: C3RL4 cells viability, ATP luminescence (CellTiter-Glo), 6 h; series mostly up to 92.4 µM
- Description: U.S. Tox21 Program National Center for Advancing Translational Sciences [NCATS] NIH Chemical Genomics Center [NCGC] U.S. Environmental Protection Agency [EPA] National Institutes of Environmental Health Sciences [NIEHS] National Toxicology Program [NTP] U.S. Food and Drug Administration [FDA] […] Also cytotoxicity was assessed by determining the viability of cells based on the quantitation of ATP. […]
Records with an inconclusive call do not appear. Activity calls are given as the source filed them. Calls come from the whole dose curve; as a rule, active = well fitted cell-killing curve with a large enough effect in the repeat runs; inconclusive = weak or mixed curves, or effect the other way; inactive = flat fitted curve, though single readings scatter.
Log the outcome using a class from Y = active, N = inactive

# count of solved cases: 2
>  <Compound>
CCN

>  <Qualitative label>
N

$$$$
>  <Compound>
Clc1ccc(-c2ccc(Cl)c(Cl)c2Cl)c(Cl)c1Cl

>  <Qualitative label>
N

$$$$

Task: Short answer needed: outcome of this test for N#CCCO ?
Output: N

Task: Tell me the assay call for CCc1ccccc1C please.
Output: N

###

- Method summary: qHTS RealTime-Glo MT Cell Viability Assay in HepG2 cells - 40 hour (AID 1224870); note: nearly all actives have a fitted effect of over 50% in size
- Condition set: RealTime-Glo luminescence; series mostly up to 76.8 µM
Records with an inconclusive call do not appear. Activity calls are given as the source filed them. The call rests on the fitted dose curve; in most records, active means well fitted cell-killing curve with a large enough effect in the repeat runs; inconclusive means weak or mixed curves, or effect the other way; inactive means flat fitted curve, though single readings scatter.
The reply should be one of these categories: TRUE = active, FALSE = inactive

Here are 4 compounds together with their reported answers.
>  <Compound>
[Cd+2].[Cl-].[Cl-]

>  <Qualitative label>
FALSE

$$$$
>  <Compound>
Oc1c(Br)c(Br)c(Br)c(Br)c1Br

>  <Qualitative label>
FALSE

$$$$
>  <Compound>
COC12CC[C@@]3(C[C@@H]1C(C)(O)C(C)(C)C)[C@H]1Cc4ccc(O)c5c4[C@@]3(CCN1CC1CC1)[C@H]2O5 (stereo partly specified)

>  <Qualitative label>
TRUE

$$$$
>  <Compound>
N#C/C=C/c1ccccc1

>  <Qualitative label>
FALSE

$$$$

Task: Which outcome was assigned to Clc1ccc(-c2ccc(Cl)c(Cl)c2Cl)c(Cl)c1Cl in this test?
Output: FALSE

Task: Which outcome was entered for the compound ClCc1ccccc1CCl in this test?
Output: FALSE

###

- Method summary: qHTS assay to identify small molecule antagonists of the androgen receptor (AR) signaling pathway - cell viability counter screen (AID 743033; note: nearly all actives have a fitted effect of over 45% in size)
- Condition set: AR-bla HEK293 viability, CellTiter-Glo luminescence, 16 h; series mostly up to 58.5 µM
Records with an inconclusive call do not appear. Activity calls are given as the source filed them. The call rests on the fitted dose curve; in most records, active means well fitted cell-killing curve with a large enough effect in the repeat runs; inconclusive means weak or mixed curves; inactive means no such curve, though single readings can be large or run the other way.
Answer with one of the outcomes TRUE for active, FALSE for inactive

Worked set:
>  <Compound>
CC(C)N1C(=O)N(c2ccccc2)CSC1=NC(C)(C)C

>  <Qualitative label>
FALSE

$$$$
>  <Compound>
CCOCn1c(-c2ccc(Cl)cc2)c(C#N)c(Br)c1C(F)(F)F

>  <Qualitative label>
TRUE

$$$$
>  <Compound>
O=c1oc2ccccc2c(O)c1Cc1c(O)c2ccccc2oc1=O

>  <Qualitative label>
FALSE

$$$$

Task: Please indicate how the test categorized CCOc1cc(C(C)(C)C)ccc1C1COC(c2c(F)cccc2F)=N1 (centres undefined) .
Output: FALSE

Task: Could you please tell me the result logged for Cc1cc(C(C)(C)c2cc(C)c(O)c(C)c2)cc(C)c1O in this assay?
Output: TRUE

Task: Dear all, I need the recorded test outcome for CS(=O)(=O)c1ccc(C(=O)C2C(=O)CCCC2=O)c([N+](=O)[O-])c1 , thank you.
Output: FALSE

Task: Each compound tested received a call. Report the one for CCOP(=S)(OCC)OC(Cl)C(Cl)(Cl)Cl (centres undefined) .
Output: FALSE

Task: Test call, this compound: CN(C)CCc1c[nH]c2cccc(O)c12
Output: FALSE

###

- Method summary: qHTS RealTime-Glo MT Cell Viability Assay in HepG2 cells - 16 hour (AID 1224885); note: nearly all actives have a fitted effect of over 50% in size
- Condition set: RealTime-Glo luminescence; series mostly up to 76.8 µM
Records with an inconclusive call do not appear. The source made the active and inactive calls. Calls come from the whole dose curve; as a rule, active = well fitted cell-killing curve with a large enough effect in the repeat runs; inconclusive = weak or mixed curves; inactive = flat fitted curve, though single readings scatter.
A correct response names exactly one class from 1 (active), 0 (inactive)

Example cases with answers are listed next.
>  <Compound>
CCOC(=O)CC(=O)CCl

>  <Qualitative label>
0

$$$$
>  <Compound>
C[C@]12Cc3nonc3C[C@@H]1CC[C@@H]1[C@@H]2CC[C@@]2(C)[C@H]1CC[C@]2(C)O

>  <Qualitative label>
0

$$$$
>  <Compound>
Clc1ccc(COC(Cn2ccnc2)c2ccc(Cl)cc2Cl)cc1 (stereo not drawn)

>  <Qualitative label>
1

$$$$
>  <Compound>
FC(Cl)(Cl)Cl

>  <Qualitative label>
0

$$$$
>  <Compound>
Oc1ccc(C(=C(Cl)Cl)c2ccc(O)cc2)cc1

>  <Qualitative label>
0

$$$$
>  <Compound>
CC(=O)c1cc(C(C)(C)C)cc2c1CCC2(C)C

>  <Qualitative label>
0

$$$$

Task: Please indicate how the test categorized COP(=O)(CCC(=O)NCO)OC .
Output: 0

Task: Would you mind telling me which call this test gave C1CCC2CCCCC2C1 (stereo not drawn) ?
Output: 0

Task: Tell me the assay call for N#Cc1ccc(O)cc1 please.
Output: 0

Task: Name the outcome recorded for CC[C@H]1C[C@@H]2C[C@H]3c4[nH]c5ccc(OC)cc5c4CCN(C2)[C@@H]13 in the assay.
Output: 0

Task: Kindly provide the recorded test outcome for the following compound: O=c1[nH]c2ccccc2n1CCCN1CCC(n2c(=O)[nH]c3cc(Cl)ccc32)CC1
Output: 0

Task: For N#CCCO , what call appears in the results of this test?
Output: 0

Task: Any idea what this test logged for CC(C)CCCCCOC(=O)c1ccccc1C(=O)OCCCCCC(C)C ?
Output: 0

Task: Could you check what this test reported for ClC1=C(Cl)[C@]2(Cl)[C@@H]3[C@@H](Cl)[C@@H](Cl)C[C@@H]3[C@@]1(Cl)C2(Cl)Cl ?
Output: 0

###

- Target: Acetylcholinesterase (Homo sapiens)
- Method summary: Acetylcholinesterase (AChE) small molecule antagonists: colormetric cell-based qHTS assay (AID 1347395); note: nearly all actives have a fitted effect of over 30% in size; note: potency is the fitted concentration of half-maximal effect
- Condition set: SH-SY5Y cells AChE activity, colorimetric (Ellman); series mostly up to 115 µM
Inconclusive results are not listed. Calls of active or inactive are those of the source. Calls follow the shape of the full dose curve.
Measurement label: Potency

Example cases with answers are listed next.
>  <Compound>
CC(C)[C@H](C(=O)O[C@H](C#N)c1cccc(Oc2ccccc2)c1)c1ccc(Cl)cc1

>  <Result>
inactive

$$$$
>  <Compound>
CCSC(C)CC1CC(=O)C(/C(CC)=N/OC/C=C/Cl)=C(O)C1 (centres undefined)

>  <Result>
30.9 µM (active)

$$$$
>  <Compound>
CCOC(=O)c1ccccc1S(=O)(=O)NC(=O)Nc1nc(Cl)cc(OC)n1

>  <Result>
inactive

$$$$
>  <Compound>
CCCCCCCCCCBr

>  <Result>
inactive

$$$$
>  <Compound>
Clc1ccc(-c2ccccc2)cc1

>  <Result>
inactive

$$$$

Task: Assign Potency to the following record: CCS(=O)(=O)c1cccnc1S(=O)(=O)NC(=O)Nc1nc(OC)cc(OC)n1
Output: inactive

Task: Output measured Potency for this item: CC1(C)CC/C(=C/c2ccc(Cl)cc2)C1(O)Cn1cncn1 (centres undefined)
Output: inactive

Task: Please supply the value of reported Potency for the item CCC(C)c1cc([N+](=O)[O-])cc([N+](=O)[O-])c1OC(=O)C=C(C)C (centres undefined)
Output: inactive

Task: Annotate the compound Cc1c(Cl)c(=O)oc2cc(OP(=O)(OCCCl)OCCCl)ccc12 with its measured Potency.
Output: 3.89 µM (active)

Task: Let me know recorded Potency for CC(=O)c1ccc(-c2ccccc2)cc1 , thanks.
Output: inactive

Task: Supply recorded Potency for CCCN(CC)CC1COC2(CCC(C(C)(C)C)CC2)O1 (centres undefined) here.
Output: inactive

Task: Fill in reported Potency for this entry: CCN(CC)C(=S)[S-].CCN(CC)C(=S)[S-].[Zn+2]
Output: inactive

Task: Retrieve Potency measured for CC(C)CC(C)N (centres undefined) and print it.
Output: inactive

###

- Method summary: qHTS assay to identify small molecule agonists of the estrogen receptor beta (ER-beta) signaling pathway - cell viability counter screen (AID 1259380); note: nearly all actives have a fitted effect of over 30% in size
- Condition set: ER-beta-bla HEK293T viability, CellTiter-Glo luminescence, 16 h; series mostly up to 92.4 µM
- Text: National Center for Advancing Translational Sciences [NCATS] NIH Chemical Genomics Center [NCGC] U.S. Environmental Protection Agency [EPA] National Institutes of Environmental Health Sciences [NIEHS] National Toxicology Program [NTP] U.S. Food and Drug Administration [FDA] Estrogen receptor (ER), a nuclear hormone receptor, plays an important role in development, metabolic homeostasis and reproduction. […]
Records with an inconclusive call do not appear. Activity calls are given as the source filed them. Calls come from the whole dose curve; as a rule, active = well fitted cell-killing curve with a large enough effect in the repeat runs; inconclusive = weak or mixed curves, or effect the other way; inactive = flat fitted curve, though single readings scatter.
Mark one answer only. Choices: True (active), False (inactive)

For orientation, consider the following solved cases.
>  <Compound>
COC12CC[C@@]3(C[C@@H]1C(C)(O)C(C)(C)C)[C@H]1Cc4ccc(O)c5c4[C@@]3(CCN1CC1CC1)[C@H]2O5 (stereo not given in full)

>  <Qualitative label>
True

$$$$
>  <Compound>
Oc1ccc(C2(c3ccc(O)cc3)CCCCC2)cc1

>  <Qualitative label>
True

$$$$
>  <Compound>
C[C@H]1CC[C@@H]2[C@@H](C)[C@H]3[C@H](C[C@H]4[C@@H]5CC=C6CC(O[C@@H]7O[C@H](CO)[C@H](O)[C@H](O[C@@H]8O[C@H](CO)[C@@H](O)[C@H](O)[C@H]8O)[C@H]7O[C@H]7O[C@@H](C)[C@H](O)[C@@H](O)[C@H]7O)CC[C@]6(C)[C@H]5CC[C@]34C)N2C1 (stereo not given in full)

>  <Qualitative label>
True

$$$$

Task: What outcome does the record of this test show for ClC1=C(Cl)[C@]2(Cl)[C@@H]3[C@@H](Cl)[C@H](Cl)C[C@@H]3[C@@]1(Cl)C2(Cl)Cl ?
Output: False

Task: Identify the outcome logged in this assay for the compound shown: N#C/C=C/c1ccccc1
Output: False
